Source of measurements: patent EP0973746B1

target: recombinant human MEK 1 (MAPKK) and recombinant human ERK2 (MAPK)
procedure.text: Mitogen Activated Protein Kinase (MAPK) assay, two component coupled MEK 1 / ERK2
particulars: separate entries for the same compound = evaluated more than one time
quantity.measured: IC50 (µM)
Your answer should be a plain number; it is taken to be in µM.

Below, 6 molecules whose answers are already recorded.
>  <molecular.string>
COc1cc2ncc(C#N)c(Nc3cc(Cl)ccc3O)c2cc1OC

>  <unit.name>
µM

>  <numeric.value>
3

$$$$
>  <molecular.string>
COc1cc2ncc(C#N)c(Nc3c(C)cccc3O)c2cc1OC

>  <unit.name>
µM

>  <numeric.value>
35

$$$$
>  <molecular.string>
CCN(CC)CC=CC(=O)Nc1cc2c(Nc3ccc(F)c(Cl)c3)c(C#N)cnc2cc1OC

>  <unit.name>
µM

>  <numeric.value>
35

$$$$
>  <molecular.string>
COc1cc2c(Nc3ccc(C)c(O)c3)c(C#N)cnc2cc1OCCN(C)C

>  <unit.name>
µM

>  <numeric.value>
5.5

$$$$
>  <molecular.string>
COc1cc2ncc(C#N)c(Nc3cccc(N(C)C)c3)c2cc1OC

>  <unit.name>
µM

>  <numeric.value>
4

$$$$
>  <molecular.string>
COc1cc2ncc(C#N)c(Nc3cc(C)c(O)c(C)c3)c2cc1OC

>  <unit.name>
µM

>  <numeric.value>
16

$$$$

Look up IC50: "COc1cc2ncc(C#N)c(Nc3ccc(C)c(Br)c3)c2cc1OC"
8

Look up IC50: "COc1cc2c(Nc3ccc(Cl)cc3F)c(C#N)cnc2cc1OCCCN1CCOCC1"
0.1

Look up IC50: "CC#CC(=O)Nc1cc(CN(C)C)c2ncc(C#N)c(Nc3cccc(Br)c3)c2c1"
40

----------
IC50 overview
System: NEC
procedure.text: Inhibition of cancer cell growth as measured by cell number, NEC
Format: cell-based
particulars: Homo sapiens; cell number, Sulforhodamine B, 48 hours exposure; Table 6; read-out: IC50 NEC
Your answer should be a plain number; it is taken to be in µg/mL.

Below, 3 molecules whose answers are already recorded.
>  <molecule>
CC#CC(=O)Nc1ccc2ncc(C#N)c(Nc3ccc(Br)c(Br)c3)c2c1 [Example 22]

>  <unit.name>
µg/mL

>  <IC50>
0.492

$$$$
>  <molecule>
COc1cc2ncc(C#N)c(Nc3cccc(Br)c3)c2cc1OC [Example 31]

>  <unit.name>
µg/mL

>  <IC50>
2.23

$$$$
>  <molecule>
COc1cc2ncc(C#N)c(NC3CCCCC3)c2cc1OC [Example 38]

>  <unit.name>
µg/mL

>  <IC50>
6.53

$$$$

Look up IC50: COc1cc2ncc(C#N)c(Sc3ccc(Br)cc3)c2cc1OC [Example 50]
6.89

----------
IC50 overview
target: recombinant human MEK 1 (MAPKK) and recombinant human ERK2 (MAPK)
procedure.text: Mitogen Activated Protein Kinase (MAPK) assay, two component coupled MEK 1 / ERK2;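 further: MEK 1-activated ERK2 phosphorylates MBP or Myc peptide with 33P-ATP, filter capture and scintillation counting, inhibitor preincubated with ERK2 30 min at 0 °C, inhibition relative to uninhibited control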
particulars: separate entries for the same compound = evaluated more than one time

Below, 6 compounds whose answers are already recorded.
>  <compound>
CCN(CC)CC#CC(=O)Nc1ccc2ncc(C#N)c(Nc3cccc(Br)c3)c2c1 [Example 187]

>  <result>
> 100 µM

$$$$
>  <compound>
C/C=C/C(=O)Nc1ccc2ncc(C#N)c(Nc3cccc(Br)c3)c2c1 [Example 382]

>  <result>
> 100 µM

$$$$
>  <compound>
N#Cc1cnc2ccc([N+](=O)[O-])cc2c1Nc1ccc(Br)cc1 [Example 153]

>  <result>
> 100 µM

$$$$
>  <compound>
CN(C)c1cccc(Nc2c(C#N)cnc3ccc([N+](=O)[O-])cc23)c1 [Example 386]

>  <result>
> 100 µM

$$$$
>  <compound>
C=CC(=O)Nc1ccc2ncc(C#N)c(Nc3cccc(C)c3)c2c1 [Example 349]

>  <result>
> 100 µM

$$$$
>  <compound>
CSc1cccc(Nc2c(C#N)cnc3ccc([N+](=O)[O-])cc23)c1 [Example 364]

>  <result>
> 100 µM

$$$$

Look up IC50: CCOc1cc2ncc(C#N)c(Nc3ccc(C)c(O)c3)c2cc1OC [Example 177]
40 µM

Look up IC50: N#Cc1cnc2ccc(N)cc2c1Nc1cccc(F)c1 [Example 385]
90 µM

Look up IC50: CC(C)N(CC#CC(=O)Nc1ccc2ncc(C#N)c(Nc3cccc(Br)c3)c2c1)C(C)C [Example 192]
> 100 µM
